# targetDesc: Cytochrome P450 1A2 (Homo sapiens) (UniProt P05177)
# Sequence (P05177 whole entry, looked up): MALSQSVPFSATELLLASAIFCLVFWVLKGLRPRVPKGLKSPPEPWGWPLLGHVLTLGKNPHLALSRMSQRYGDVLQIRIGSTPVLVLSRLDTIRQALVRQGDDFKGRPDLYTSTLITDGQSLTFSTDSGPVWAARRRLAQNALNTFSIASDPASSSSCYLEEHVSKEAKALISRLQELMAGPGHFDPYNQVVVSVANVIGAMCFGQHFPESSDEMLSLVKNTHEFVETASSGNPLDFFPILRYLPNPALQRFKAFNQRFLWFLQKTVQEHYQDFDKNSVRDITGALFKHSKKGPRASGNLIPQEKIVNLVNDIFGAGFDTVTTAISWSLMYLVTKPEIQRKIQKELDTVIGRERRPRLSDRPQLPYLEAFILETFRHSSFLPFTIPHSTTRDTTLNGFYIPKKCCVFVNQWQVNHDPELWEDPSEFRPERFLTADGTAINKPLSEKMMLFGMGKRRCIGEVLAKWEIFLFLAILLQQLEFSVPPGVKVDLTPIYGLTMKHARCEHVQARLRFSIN
# experimentalDetails: Cytochrome P450 Family 1 Subfamily A Member 2 (CYP1A2) small molecule antagonists: luciferase reporter qHTS assay (AID 1671199); note: nearly all actives have a fitted effect of over 50% in size
# conditionLabel: P450-Glo CYP1A2 enzyme, luciferin luminescence, 1 h; series mostly up to 53 µM
Results filed as inconclusive are left out. Activity calls are given as the source filed them. Calls come from the whole dose curve; as a rule, active = well fitted inhibition curve with a large enough effect in the repeat runs; inconclusive = weak or mixed curves; inactive = no such curve, though single readings can be large or run the other way.
Field 'call' accepts Yes for active, No for inactive

*Q* Answer briefly: the call reported for `Nc1ccc2ccccc2c1S(=O)(=O)O` in this assay.
*A* Yes

*Q* Answer briefly: the call reported for `CCCCCCCCOC(=O)CCCCCCCCC(=O)OCCCCCCCC` in this assay.
*A* No

*Q* What was the test verdict on `CC(=O)Nc1ccc(C)c(Cl)c1` ?
*A* Yes

*Q* What outcome does the record of this test show for `Cc1cccc(C)c1NC(=O)CN1CCCCCC1` ?
*A* No

*Q* Returns: the outcome recorded for `O=C(Cl)c1cccc([N+](=O)[O-])c1` in this assay.
*A* Yes

*Q* Each compound tested received a call. Report the one for `C=C(C)C(=O)OCCOP(=O)(O)O` .
*A* No

*Q* Any idea what this test logged for `CCc1cc2cc(OC)c(OC)cc2c(Cc2ccccc2)n1` ?
*A* Yes

*Q* // param item: `Cc1ccc(C(C)C)cc1O` ; yields the recorded call
*A* Yes

*Q* Check the results log: what was the call for `COc1ccc2nc(NC(=O)Nc3ccccc3)sc2c1` ?
*A* Yes

*Q* # fetch the recorded call for `C[C@@H]1CN(c2c(F)c(N)c3c(=O)c(C(=O)O)cn(C4CC4)c3c2F)C[C@H](C)N1` here
*A* No

*Q* Which result was noted for this compound in the test: `CCCCc1ccc2nc(NC(=O)OC)[nH]c2c1`
*A* No

*Q* Entry `CC1=C(CC(=O)O)c2cc(F)ccc2/C1=C\c1ccc(S(C)(=O)=O)cc1` : call = ?
*A* Yes
